Exercise: state measured melting point for each of the molecules provided.

Answered cases to consult:
{"columns": ["smiles.code", "result"],
 "data": [
  ["COC(=O)c1ccc(C=Cc2ccc([N+](=O)[O-])c(C#N)c2)cc1", "266 to 269 °C"],
  ["CCc1c(C)nc(OC)c(NC(=O)C(C)(C)C)c1Cc1cc(C)cc(C)c1", "138 to 139 °C"],
  ["COCc1cn(-c2cccc(C(F)(F)F)c2)nc(C(C)=O)c1=O", "141 to 143 °C"]
]}

Please state melting point for every molecule in the list that follows.
1. O=C(NS(=O)(=O)c1ncccc1C(F)(F)F)Oc1ccccc1
2. O=C(c1ccc(NS(=O)(=O)c2ccccc2)cc1)N1CCCCc2ccccc21

Response given:
["130 to 134 °C", "178 to 182 °C"]
